System: UACC-257 melanoma
Protocol text: NCI tumour cell line growth inhibition, 48 h
Quantity name: TGI (µM)
Express your answer in µM, writing the number without its unit.

Fill in the recorded TGI for this compound, with UACC-257 melanoma as test system: `O=C1C=CC(=O)c2cc(Sc3ccccc3)c(=O)ccc21`
33.6

For `CC(C)(C)CC(C)(C)NCc1cc(C(C)(C)C)cc(CNC(C)(C)CC(C)(C)C)c1O` then?
6.52

----------
Tested on: SN12C renal
Protocol text: NCI tumour cell line growth inhibition, 48 h
Classification field: enter MET for TGI values not below 40 µM, NOT MET for values below it.

Form field: TGI at least 40 µM? Entry: `O=Cc1cccc2c1Oc1c(cccc1C(=O)O)S2`
MET

For CCOC(=O)C(Cc1cccn1C(=O)OC(C)(C)C)[N+](=O)[O-] (centres undefined) then?
MET

For `O=C(O)/C(Cc1ccc([N+](=O)[O-])cc1)=N\O` then?
MET

For COC(C(=O)NCCCCNC(=O)C(OC)c1ccccc1)c1ccccc1 (centres undefined) then?
MET

For `C=C1C(=O)O[C@@H]2C[C@]3(C)CC[C@]4(C)[C@H](CC[C@@H]5[C@@]6(C)CCC(=O)C(C)(C)[C@@H]6CC[C@]54C)[C@H]3[C@H]12` then?
NOT MET

For `C=C1C(=O)O[C@H]2[C@@H](O)[C@H](C)CCC[C@]3(C)O[C@H]3CC[C@@]3(C)O[C@@H]3C[C@@H]12` then?
NOT MET

For Cc1cc(Cl)ccc1NC(=O)C(=O)C(C(=O)c1ccc2ccccc2c1)C1OC(=O)c2ccccc21 (centres undefined) then?
NOT MET

For C/C=C/CC(C)[C@@H](O)[C@H](NC)C(=O)O (some centres undefined) then?
MET

----------
Consider the following molecules; for each one, report its TGI.
Tested on: MOLT-4 leukemia
Protocol text: NCI tumour cell line growth inhibition, 48 h
Express your answer in µM, writing the number without its unit.

Reported TGI, molecule `CC(C)(C)CC(C)(C)NCc1cc(C(C)(C)C)cc(CNC(C)(C)CC(C)(C)C)c1O` : ____
9.34

For `Nc1ccc(C(=O)c2cn(CCN3CCOCC3)c3ccccc23)c2ccccc12` then?
52.5

For `CN(C)C=C1C(Cl)=C(C=O)CC(C=O)=C1Cl` then?
10.2

For COC(=O)C(Cc1nc2ccccc2[nH]c1=O)C(=O)C(=O)Nc1ccc([N+](=O)[O-])cc1[N+](=O)[O-] (stereo not given) then?
59.1

For `O=C(OCc1ncc(-c2ccc(C(F)(F)F)cc2)c(NC2CCCCCC2)n1)c1c(F)c(F)c(F)c(F)c1F` then?
11.8

----------
System: OVCAR-3 ovarian
Protocol text: NCI tumour cell line growth inhibition, 48 h
Quantity name: GI50

Fill in the recorded GI50 for this molecule, with OVCAR-3 ovarian as test system: CCN(CC)CCCC(C)N=C(C1=C(C(=NC(C)CCCN(CC)CC)c2cccc(OC)c2)C(=O)NC1=O)c1cccc(OC)c1 (centres undefined)
1.45 µM

For `COc1ccc(OC)c(-c2cc(-c3ccc(Cl)cc3)nn2-c2ccc(S(=O)(=O)NC(C)=O)cc2)c1` then?
25.4 µM

For `CNC(=O)Cc1nc(-c2cccc(NS(=O)(=O)c3c(F)cccc3F)c2F)c(-c2ccnc(Nc3ccccc3)n2)s1` then?
12.9 µM

For `COc1cc(-c2nc(-c3nc4ccccc4[nH]3)cc3c2[nH]c2ccccc23)cc(OC)c1OC` then?
6.2 µM

For `N#CC1=C(N)NC(N2CCOCC2)=NC12Nc1ccccc1N2` then?
20.2 µM

For `COc1cccc(/C=C/C(=O)c2ccc(Cl)cc2Cl)c1` then?
10.9 µM

For `COc1ccc(C(=O)c2cc3c(N)c(C(=O)Nc4ccc(C)cc4)sc3nc2C)cc1` then?
2.25 µM

For COc1nc(N)nc2c1ncn2C1OC(CO)C(O)C1O (centres undefined) then?
> 5000 µM

For C=C1CCC2C(C)(COC(=O)CC)C(OC(=O)CC)CCC2(C)C1C/C=C1/C(=O)OCC1OC(=O)CC (centres undefined) then?
1.77 µM
